B1: FAM107A (parent)
chain: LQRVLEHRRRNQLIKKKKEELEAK

# Variants of: B1
# Assay summary: protein stability index of a GFP-peptide fusion (GPS, HEK-293T) (PSI 1-6); higher = more stable;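 also: lentivirally expressed fusions sorted by FACS into six bins by GFP to DsRed ratio, PSI derived from sequencing read proportions per bin multiplied by bin number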
# Cond: c terminus: a fixed tail appended
Kindly supply the reported protein stability index values for the records listed here.

Which protein stability index is reported for this variant? "K16S"
4

// query: "K16R"
3.04

Do the same for "E20L" please
3.03

Likewise for "E19T" ?
3.19

Follow-up entry: "E22L"
3.08

Item: "K16Y"
2.41

# iterate: "K18P"
4.37

Another: "N11Y"
2.97

And for "V4L" ?
2.87

// query: "K15P"
4.18
